Where do the numbers come from? From ChEMBL document CHEMBL4425110.

- Tested on: Plasmodium berghei
- TEST_DESCRIPTION: Antimalarial activity against Plasmodium berghei infected in mouse assessed as inhibition of parasitemia at 50 mg/kg, po administered as single dose measured on day 6 post drug exposure relative to untreated control
- Format: functional
- EXPERIMENTAL_CONDITIONS: 144 h
ENDPOINT_LABEL: inhibition in vivo at 50 mg/kg (%)
The answer is to be given in %; state only the numeric part.

Below, 5 compounds whose answers are already recorded.
STRUCTURE	inhibition in vivo at 50 mg/kg / %
COC(=O)c1c[nH]c2cc(Oc3ccccc3)ccc2c1=O	29.8
CCCCc1cc2c(=O)c(C(=O)OC)c[nH]c2cc1OCCOc1ccccc1	49
CCCCc1cc2c(=O)c(CC)c[nH]c2cc1OCCOc1ccccc1	17.7
CCCCc1cc2c(=O)c(I)c(C)[nH]c2cc1OCCOc1ccccc1	19.6
COC(=O)c1c[nH]c2cc(OCCCc3ccccc3)ccc2c1=O	47.1

(Q) Fill in the blank: the reported inhibition in vivo at 50 mg/kg of `CCCCc1cc2c(=O)c(Br)c(C)[nH]c2cc1OCCOc1ccccc1` is ____.
(A) 49.5

----------
- TEST_DESCRIPTION: Solubility in pH 6.5 buffer by HPLC based UV spectroscopy
- Assay type: physicochemical
ENDPOINT_LABEL: solubility

(Q) Fill in the blank: the reported solubility of `CCCCc1cc2c(=O)c(C(=O)NCCO)c[nH]c2cc1OCCOc1ccccc1` is ____.
(A) > 20 µM

----------
- System: Plasmodium berghei
- TEST_DESCRIPTION: Antimalarial activity against Plasmodium berghei infected in mouse assessed as inhibition of parasitemia at 50 mg/kg, po administered as single dose measured on day 3 post drug exposure relative to untreated control
- Format: functional
- EXPERIMENTAL_CONDITIONS: 72 h
ENDPOINT_LABEL: inhibition in vivo at 50 mg/kg
Answer format reminder: number followed by unit.

Below, 4 molecules whose answers are already recorded.
STRUCTURE	inhibition in vivo at 50 mg/kg
CCCCc1cc2c(=O)c(I)c(C)[nH]c2cc1OCCOc1ccccc1	53.9%
COC(=O)c1c[nH]c2ccc(OCCCc3ccccc3)cc2c1=O	76.9%
COC(=O)c1c[nH]c2cc(Oc3ccccc3)ccc2c1=O	40%
CCCCc1cc2c(=O)c(C(=O)NCCO)c[nH]c2cc1OCCOc1ccccc1	40%

// below: inhibition in vivo at 50 mg/kg requested for another molecule
(Q) Could you share what inhibition in vivo at 50 mg/kg was measured for `CCCCc1cc2c(=O)c(C(=O)OC)c[nH]c2cc1OCCOc1ccccc1` , tested on Plasmodium berghei?
(A) 76.9%

----------
- Test system: J774
- TEST_DESCRIPTION: Cytotoxicity against mouse J774 cells
- Assay type: cell-based
ENDPOINT_LABEL: EC50

STRUCTURE	EC50
COC(=O)c1c[nH]c2ccccc2c1=O	> 20 µM
CCCCc1cc2c(=O)c(I)c[nH]c2cc1OCCOc1ccccc1	> 10 µM

(Q) Fill in the blank: the reported EC50 of `CCCCc1cc2c(=O)c(C(=O)OC)c[nH]c2cc1OCCOc1ccccc1` is ____.
(A) > 20 µM

(Q) Fill in the blank: the reported EC50 of `COC(=O)c1c[nH]c2ccc(OC)cc2c1=O` is ____.
(A) 6.18 µM

(Q) Fill in the blank: the reported EC50 of `COC(=O)c1c[nH]c2ccc(Cl)cc2c1=O` is ____.
(A) > 20 µM
